Test: Solubility screening of Formula (I) in crystallization solvents at RT and 50° C. (TABLE 3)
Assay type: physicochemical
Details: n-propanol, organic solvent or mixture, thermodynamic from solid, n-Propanol; RT; read-out: Nominal Solubility
measure: solubility (mg/mL)
The reply should contain only the number, in mg/mL.

Enquiry: GET /values?readout=solubility&item= CC[C@H](C)C(=O)N1CCC(NC(=O)Nc2ccc(OC(F)(F)F)c(F)c2)CC1
Return: 52.2

###

Test: Differential scanning calorimetry (DSC): heat of fusion, thermal events
Format: physicochemical
measure: DSC Thermal Events, Endo: melting of pattern F

Below, 5 compounds whose answers are already recorded.
compound	measValue
CC[C@H](C)C(=O)N1CCC(NC(=O)Nc2ccc(OC(F)(F)F)c(F)c2)CC1 [Form A]	148 °C meting of patter F
CC[C@H](C)C(=O)N1CCC(NC(=O)Nc2ccc(OC(F)(F)F)c(F)c2)CC1 [L]	148 °C melting of pattern F
CC[C@H](C)C(=O)N1CCC(NC(=O)Nc2ccc(OC(F)(F)F)c(F)c2)CC1 [H]	148 °C melting of pattern F
CC[C@H](C)C(=O)N1CCC(NC(=O)Nc2ccc(OC(F)(F)F)c(F)c2)CC1 [Form F]	150 °C melting of pattern F
CC[C@H](C)C(=O)N1CCC(NC(=O)Nc2ccc(OC(F)(F)F)c(F)c2)CC1 [C]	147 °C melting of pattern F

Enquiry: GET /values?readout=DSC Thermal Events, Endo: melting of pattern F&item= CC[C@H](C)C(=O)N1CCC(NC(=O)Nc2ccc(OC(F)(F)F)c(F)c2)CC1 [K]
Return: 148 °C melting of pattern F

Enquiry: GET /values?readout=DSC Thermal Events, Endo: melting of pattern F&item= CC[C@H](C)C(=O)N1CCC(NC(=O)Nc2ccc(OC(F)(F)F)c(F)c2)CC1 [J]
Return: 149 °C melting of pattern F

Enquiry: GET /values?readout=DSC Thermal Events, Endo: melting of pattern F&item= CC[C@H](C)C(=O)N1CCC(NC(=O)Nc2ccc(OC(F)(F)F)c(F)c2)CC1 [E]
Return: 148 °C melting of pattern F

###

Assay: Solubility screening of Formula (I) in crystallization solvents at RT and 50° C. (TABLE 3)
Assay type: physicochemical
Details: toluene, 50 °C, organic solvent or mixture, thermodynamic from solid, Toluene; 50° C.; read-out: Nominal Solubility
measure: solubility (µg/mL)
The reply should contain only the number, in µg/mL.

Enquiry: GET /values?readout=solubility&item= CC[C@H](C)C(=O)N1CCC(NC(=O)Nc2ccc(OC(F)(F)F)c(F)c2)CC1 [Formula (I)]
Return: 10000

###

Assay: Solubility screening of Formula (I) in crystallization solvents at RT and 50° C. (TABLE 3)
Assay type: physicochemical
Details: methyl tert-butyl ether (MTBE), 50 °C, organic solvent or mixture, thermodynamic from solid, MTBE; 50° C.; read-out: Nominal Solubility
measure: solubility (mg/mL)
The reply should contain only the number, in mg/mL.

Enquiry: GET /values?readout=solubility&item= CC[C@H](C)C(=O)N1CCC(NC(=O)Nc2ccc(OC(F)(F)F)c(F)c2)CC1
Return: 5.68

###

Test: Solubility of Form C in binary solvent systems (TABLE 22)
Format: physicochemical
Details: ethyl acetate/n-heptane, organic solvent or mixture; EtoAC, ratio of n-heptane to primary 2.0 (2nd test point)
measure: solubility (µg/mL)
The reply should contain only the number, in µg/mL.

Enquiry: GET /values?readout=solubility&item= CC[C@H](C)C(=O)N1CCC(NC(=O)Nc2ccc(OC(F)(F)F)c(F)c2)CC1 [Form C]
Return: 4000
